# Test system: SF-539
# Experiment Notes: NCI60 five-dose screen
# Format: cell-based
# Condition Label: Homo sapiens, SF-539
Recorded measurements of log10 of GI50, one per entry
Hello, just confirming the data are log10 of GI50 with units of nM.

• CC[C@]12C=CCN3CC[C@@]4(c5ccc(OC)cc5N(C)[C@H]4[C@@](O)(C(=O)OC)[C@@H]1OC(=O)CCC[P+](C1CCCCC1)(C1CCCCC1)C1CCCCC1)[C@@H]32 = 3.47
• CC[C@]12C=CCN3CC[C@@]4(c5ccc(OC)cc5N(C)[C@H]4[C@@](O)(C(=O)OC)[C@@H]1OC(=O)CCC[P+](c1ccccc1)(c1ccccc1)c1ccccc1OC)[C@@H]32 = 2.64
• CC[C@]12C=CCN3CC[C@@]4(c5ccc(OC)cc5N(C)[C@H]4[C@@](O)(C(=O)OC)[C@@H]1OC(=O)CCCC[P+](c1ccc(C)cc1)(c1ccc(C)cc1)c1ccc(C)cc1)[C@@H]32 [10a] = 3.09
• CC[C@]12C=CCN3CC[C@@]4(c5ccc(OC)cc5N(C)[C@H]4[C@@](O)(C(=O)OC)[C@@H]1OC(=O)CCCC[P+](c1ccc(OC)cc1)(c1ccc(OC)cc1)c1ccc(OC)cc1)[C@@H]32 [10b] = 3.18
• CC[C@]12C=CCN3CC[C@@]4(c5ccc(OC)cc5N(C)[C@H]4[C@@](O)(C(=O)OC)[C@@H]1OC(=O)CCCC[P+](c1ccccc1)(c1ccccc1)c1ccccc1)[C@@H]32 [compound 4, reference compound] = 3.11
• CC[C@]12C=CCN3CC[C@@]4(c5ccc(OC)cc5N(C)[C@H]4[C@@](O)(C(=O)OC)[C@@H]1OC(=O)CCCC[P+](C1CCCCC1)(C1CCCCC1)C1CCCCC1)[C@@H]32 [10d] = 3.45
• CC[C@]12C=CCN3CC[C@@]4(c5ccc(OC)cc5N(C)[C@H]4[C@@](O)(C(=O)OC)[C@@H]1OC(=O)CCC[P+](c1ccc(F)cc1)(c1ccc(F)cc1)c1ccc(F)cc1)[C@@H]32 = 4.23

Give reported log10 of GI50 value for CCC12C=CCN3CCC4(c5ccc(OC)cc5N(C)C4C(O)(C(=O)OC)C1OC(=O)CCC[P+](c1ccc(C)cc1)(c1ccc(C)cc1)c1ccc(C)cc1)C32 (centres unmarked)
2.53

----------
# Tested on: HCC-2998
# Experiment Notes: NCI60 five-dose screen
# Format: cell-based
# Condition Label: Homo sapiens, HCC 2998
Lab note: cut-off is 1000 nM. Strictly less in GI50 is label 1. Exactly 1000 nM or more is label 0.

• CC[C@]12C=CCN3CC[C@@]4(c5ccc(OC)cc5N(C)[C@H]4[C@@](O)(C(=O)OC)[C@@H]1OC(=O)CCC[P+](c1ccccc1)(c1ccccc1)c1ccccc1OC)[C@@H]32 [9f] = label 1

Field: below-cutoff. Rule: recorded GI50 strictly less than 1000 nM. Subject: CC[C@]12C=CCN3CC[C@@]4(c5ccc(OC)cc5N(C)[C@H]4[C@@](O)(C(=O)OC)[C@@H]1OC(=O)CCC[P+](c1ccc(F)cc1)(c1ccc(F)cc1)c1ccc(F)cc1)[C@@H]32 [9c]
label 0

Field: below-cutoff. Rule: recorded GI50 strictly less than 1000 nM. Subject: CCC12C=CCN3CCC4(c5ccc(OC)cc5N(C)C4C(O)(C(=O)OC)C1OC(=O)CCC[P+](c1ccc(C)cc1)(c1ccc(C)cc1)c1ccc(C)cc1)C32 (centres unmarked) [9a]
label 1

Field: below-cutoff. Rule: recorded GI50 strictly less than 1000 nM. Subject: CC[C@]12C=CCN3CC[C@@]4(c5ccc(OC)cc5N(C)[C@H]4[C@@](O)(C(=O)OC)[C@@H]1OC(=O)CCCC[P+](C1CCCCC1)(C1CCCCC1)C1CCCCC1)[C@@H]32 [10d]
label 0

Field: below-cutoff. Rule: recorded GI50 strictly less than 1000 nM. Subject: CC[C@]12C=CCN3CC[C@@]4(c5ccc(OC)cc5N(C)[C@H]4[C@@](O)(C(=O)OC)[C@@H]1OC(=O)CCC[P+](C1CCCCC1)(C1CCCCC1)C1CCCCC1)[C@@H]32 [9d]
label 0

Field: below-cutoff. Rule: recorded GI50 strictly less than 1000 nM. Subject: CC[C@]12C=CCN3CC[C@@]4(c5ccc(OC)cc5N(C)[C@H]4[C@@](O)(C(=O)OC)[C@@H]1OC(=O)CCCC[P+](c1ccccc1)(c1ccccc1)c1ccccc1)[C@@H]32 [compound 4, reference compound]
label 1

Field: below-cutoff. Rule: recorded GI50 strictly less than 1000 nM. Subject: CC[C@]12C=CCN3CC[C@@]4(c5ccc(OC)cc5N(C)[C@H]4[C@@](O)(C(=O)OC)[C@@H]1OC(=O)CCCC[P+](c1ccc(OC)cc1)(c1ccc(OC)cc1)c1ccc(OC)cc1)[C@@H]32 [10b]
label 1

Field: below-cutoff. Rule: recorded GI50 strictly less than 1000 nM. Subject: CC[C@]12C=CCN3CC[C@@]4(c5ccc(OC)cc5N(C)[C@H]4[C@@](O)(C(=O)OC)[C@@H]1OC(=O)CCCC[P+](c1ccc(C)cc1)(c1ccc(C)cc1)c1ccc(C)cc1)[C@@H]32 [10a]
label 1

----------
# System: HOP-92
# Experiment Notes: NCI60 five-dose screen
# Assay type: cell-based
# Condition Label: Homo sapiens, HOP-92
Readout Name: GI50 (µM)
Respond with the bare value in µM.

Record excerpt, results attached:
* CC[C@]12C=CCN3CC[C@@]4(c5ccc(OC)cc5N(C)[C@H]4[C@@](O)(C(=O)OC)[C@@H]1OC(=O)CCCC[P+](c1ccc(OC)cc1)(c1ccc(OC)cc1)c1ccc(OC)cc1)[C@@H]32 [10b] | 0.52
* CCC12C=CCN3CCC4(c5ccc(OC)cc5N(C)C4C(O)(C(=O)OC)C1OC(=O)CCC[P+](c1ccc(C)cc1)(c1ccc(C)cc1)c1ccc(C)cc1)C32 (stereo not drawn) | 0.187

Now, please, on to the next compound.
Please indicate recorded GI50 of CC[C@]12C=CCN3CC[C@@]4(c5ccc(OC)cc5N(C)[C@H]4[C@@](O)(C(=O)OC)[C@@H]1OC(=O)CCCC[P+](c1ccc(C)cc1)(c1ccc(C)cc1)c1ccc(C)cc1)[C@@H]32 [10a] measured with HOP-92.
0.49

----------
# Tested on: 786-0
# Experiment Notes: NCI60 five-dose screen
# Type: cell-based
# Condition Label: Homo sapiens, 786-0
Lab note: cut-off is 2000 nM. Strictly less in GI50 is y. Exactly 2000 nM or more is n.

• CC[C@]12C=CCN3CC[C@@]4(c5ccc(OC)cc5N(C)[C@H]4[C@@](O)(C(=O)OC)[C@@H]1OC(=O)CCCC[P+](c1ccccc1)(c1ccccc1)c1ccccc1)[C@@H]32 [compound 4, reference compound] = n

Field: below-cutoff. Rule: recorded GI50 strictly less than 2000 nM. Subject: CC[C@]12C=CCN3CC[C@@]4(c5ccc(OC)cc5N(C)[C@H]4[C@@](O)(C(=O)OC)[C@@H]1OC(=O)CCC[P+](c1ccc(F)cc1)(c1ccc(F)cc1)c1ccc(F)cc1)[C@@H]32 [9c]
n

Field: below-cutoff. Rule: recorded GI50 strictly less than 2000 nM. Subject: CCC12C=CCN3CCC4(c5ccc(OC)cc5N(C)C4C(O)(C(=O)OC)C1OC(=O)CCC[P+](c1ccc(C)cc1)(c1ccc(C)cc1)c1ccc(C)cc1)C32 (centres unmarked) [9a]
y

Field: below-cutoff. Rule: recorded GI50 strictly less than 2000 nM. Subject: CC[C@]12C=CCN3CC[C@@]4(c5ccc(OC)cc5N(C)[C@H]4[C@@](O)(C(=O)OC)[C@@H]1OC(=O)CCCC[P+](c1ccc(C)cc1)(c1ccc(C)cc1)c1ccc(C)cc1)[C@@H]32 [10a]
y

Field: below-cutoff. Rule: recorded GI50 strictly less than 2000 nM. Subject: CC[C@]12C=CCN3CC[C@@]4(c5ccc(OC)cc5N(C)[C@H]4[C@@](O)(C(=O)OC)[C@@H]1OC(=O)CCC[P+](C1CCCCC1)(C1CCCCC1)C1CCCCC1)[C@@H]32 [9d]
n

Field: below-cutoff. Rule: recorded GI50 strictly less than 2000 nM. Subject: CC[C@]12C=CCN3CC[C@@]4(c5ccc(OC)cc5N(C)[C@H]4[C@@](O)(C(=O)OC)[C@@H]1OC(=O)CCCC[P+](c1ccc(OC)cc1)(c1ccc(OC)cc1)c1ccc(OC)cc1)[C@@H]32 [10b]
n

Field: below-cutoff. Rule: recorded GI50 strictly less than 2000 nM. Subject: CC[C@]12C=CCN3CC[C@@]4(c5ccc(OC)cc5N(C)[C@H]4[C@@](O)(C(=O)OC)[C@@H]1OC(=O)CCCC[P+](C1CCCCC1)(C1CCCCC1)C1CCCCC1)[C@@H]32 [10d]
n
